SUBJECT_OF_TEST: T1, His9-hMSR1 (human MSR1 extracellular domain) (Homo sapiens, UniProt P21757)
T1 construct: human MSR1 extracellular domain expressed with a N-terminal nonahistidine tag; His9 (nonahistidine) (N); purchased R&D Systems 2708-MS
T1 sequence (P21757 77-451 limits assumed): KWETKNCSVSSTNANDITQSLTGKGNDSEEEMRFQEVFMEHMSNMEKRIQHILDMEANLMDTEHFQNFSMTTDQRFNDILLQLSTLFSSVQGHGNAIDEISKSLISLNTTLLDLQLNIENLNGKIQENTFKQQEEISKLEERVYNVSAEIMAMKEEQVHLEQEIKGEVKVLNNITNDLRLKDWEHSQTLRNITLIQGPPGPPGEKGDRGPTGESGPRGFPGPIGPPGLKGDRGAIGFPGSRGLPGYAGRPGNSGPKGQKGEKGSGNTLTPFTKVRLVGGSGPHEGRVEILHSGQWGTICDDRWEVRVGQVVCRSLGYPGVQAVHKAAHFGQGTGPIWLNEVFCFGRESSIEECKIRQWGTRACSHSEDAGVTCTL
PROTOCOL: Biacore T200 surface plasmon resonance binding kinetics of anti-MSR1 antibody-drug conjugates and parental antibodies
TEST_PARAMETERS: 25° C.; Table 19, antibody-LXR ADCs and unconjugated antibodies
MEASURED_METRIC: ka (M⁻¹ s⁻¹)

[[record]]
molecule = "H1H27734P-N297Q: one of \"Twelve anti-MSR1 antibodies\"; \"made with an N297Q single point mutation in human Fcγ portion\" (antibody, V domains shown) VH: EVQLVESRGGLVQPGGSLRLSCAASGFTFSSYAMSWVRQAPGKGLEWVSAISGSGGSTFYADSVKGRFTISRDNSKNTVYLQMNSLRAEDTAVYYCAKALVLRFLEWLGDYWGQGTLVTVSS VL: DIQMTQSPSTLSASVGDRVTITCRASQSISSWLAWFQQKPGKAPKLLIYKASSLESGVPSRFSGSGSGTEFTLTISSLQPDDFATYYCQQYKSYWTFGQGTKVEIKR"
measured_metric = "ka"
result_number = 77200

